Test system: human cytomegalovirus (HCMV), strain AD-169
ASSAY COMMENT: Antiviral test (plaque reduction) versus HCMV, strain AD-169, in MRC-5 cells
Type: cell-based
CONDITION LABEL: 10 μg/ml; Example 2; ethanol stock (protohypericin in DMSO); cells exposed 6 or more days
EXPERIMENTAL READOUT: Percent Inhibition of Plaque Numbers (Compared to Virus Controls)

{"COMPOUND": "O=C(O)c1cc(O)c2c(c1)[C@H]([C@H]1c3cc(C(=O)O)cc(O)c3C(=O)c3c(O[C@@H]4O[C@H](CO)[C@@H](O)[C@H](O)[C@H]4O)cccc31)c1cccc(O[C@@H]3O[C@H](CO)[C@@H](O)[C@H](O)[C@H]3O)c1C2=O [(+)Sennoside A, sennoside A]", "TARGET OR SYSTEM": "human cytomegalovirus (HCMV), strain AD-169", "ASSAY VALUE": "0%"}
{"COMPOUND": "Cc1cc(O)c2c(c1)C(C1c3cc(C)cc(O)c3C(=O)c3c(O)cc(O)cc31)c1cc(O)cc(O)c1C2=O (stereo not drawn) [Emodin Bianthrone (meso), emodin bianthrone]", "TARGET OR SYSTEM": "human cytomegalovirus (HCMV), strain AD-169", "ASSAY VALUE": "toxic"}
{"COMPOUND": "Cc1cc(O)c2c(c1)C(=O)c1cc(O)cc(O)c1C2=O", "TARGET OR SYSTEM": "human cytomegalovirus (HCMV), strain AD-169", "ASSAY VALUE": "toxic"}
{"COMPOUND": "Cc1cc(O)c2c(c1)C(C1c3cc(C)cc(O)c3C(=O)c3c(O)cc(O)cc31)c1cc(O)cc(O)c1C2=O (stereo not shown) [Emodin Bianthrone (mixed), emodin bianthrone]", "TARGET OR SYSTEM": "human cytomegalovirus (HCMV), strain AD-169", "ASSAY VALUE": "toxic"}
{"COMPOUND": "O=C(O)c1cc(O)c2c(c1)[C@@H]([C@H]1c3cc(C(=O)O)cc(O)c3C(=O)c3c(O[C@@H]4O[C@H](CO)[C@@H](O)[C@H](O)[C@H]4O)cccc31)c1cccc(O[C@@H]3O[C@H](CO)[C@@H](O)[C@H](O)[C@H]3O)c1C2=O [Meso Sennoside B, sennoside B]", "TARGET OR SYSTEM": "human cytomegalovirus (HCMV), strain AD-169", "ASSAY VALUE": "0%"}
{"COMPOUND": "Cc1cc(O)c2c(c1)C(C1c3cc(C)cc(O)c3C(=O)c3c(O)cc(O)cc31)c1cc(O)cc(O)c1C2=O (stereo not shown) [Emodin Bianthrone (d,1), emodin bianthrone]", "TARGET OR SYSTEM": "human cytomegalovirus (HCMV), strain AD-169", "ASSAY VALUE": "toxic"}
{"COMPOUND": "Cc1cc(O)c2c(c1)Cc1cc(O)cc(O)c1C2=O", "TARGET OR SYSTEM": "human cytomegalovirus (HCMV), strain AD-169", "ASSAY VALUE": "toxic"}
